Data origin, for the record: patent US11109593B2

Measured herbicidal effect (herbicidal rate), Amaranthus viridis, listed per entry for reference.
- Tested on: Amaranthus viridis
- ASSAY PROTOCOL: Test Example 4: herbicidal effect test by treatment of leave and stem in dry field farming (seven days after seeding)
- Format: in vivo
- EXPERIMENTAL PARAMETERS: 120 g/10a active ingredient; emulsion sprayed seven days after seeding; evaluated 14 days after treatment
PROPERTY LABEL: herbicidal effect (herbicidal rate), Amaranthus viridis (%)

[
  {
    "MOLECULE": "CCc1c(Cc2ccccc2NS(=O)(=O)C(F)(F)F)c(=O)on1C(C)C",
    "READOUT NUMBER": 40
  },
  {
    "MOLECULE": "CCC(C)n1oc(=O)c(Cc2ccccc2N(C(=O)c2ccc(Cl)cc2)S(=O)(=O)C(F)(F)F)c1C (stereo not drawn)",
    "READOUT NUMBER": 40
  },
  {
    "MOLECULE": "CCCC(C)n1oc(=O)c(Cc2ccccc2N(S(C)(=O)=O)S(=O)(=O)C(F)(F)F)c1C (stereo not drawn)",
    "READOUT NUMBER": 60
  },
  {
    "MOLECULE": "Cc1c(Cc2ccccc2NS(=O)(=O)C(F)(F)F)c(=O)on1CC(C)c1ccccc1 (stereo not drawn)",
    "READOUT NUMBER": 40
  },
  {
    "MOLECULE": "CC(=O)N(c1ccccc1Cc1c(C)n(CC(C)(C)C)oc1=O)S(=O)(=O)C(F)(F)F",
    "READOUT NUMBER": 40
  },
  {
    "MOLECULE": "CCC(C)Cn1oc(=O)c(Cc2ccccc2N(C(=O)OCC(C)C)S(=O)(=O)C(F)(F)F)c1C (stereo not drawn)",
    "READOUT NUMBER": 60
  },
  {
    "MOLECULE": "CCC(c1ccccc1)n1oc(=O)c(Cc2ccccc2NS(=O)(=O)C(F)(F)F)c1C (stereo not drawn)",
    "READOUT NUMBER": 40
  },
  {
    "MOLECULE": "COCC(C)n1oc(=O)c(Cc2ccccc2N(C(=O)Cc2ccccc2)S(=O)(=O)C(F)(F)F)c1C (stereo not drawn)",
    "READOUT NUMBER": 40
  },
  {
    "MOLECULE": "Cc1c(Cc2ccccc2N(S(=O)(=O)C(F)(F)F)S(=O)(=O)C(F)(F)F)c(=O)on1C1CCCc2ccccc21 (stereo not drawn)",
    "READOUT NUMBER": 40
  },
  {
    "MOLECULE": "Cc1c(Cc2ccccc2N(S(=O)(=O)C(F)(F)F)S(=O)(=O)C(F)(F)F)c(=O)on1CC(C)c1ccccc1 (stereo not drawn)",
    "READOUT NUMBER": 90
  },
  {
    "MOLECULE": "Cc1c(Cc2ccccc2N(S(=O)(=O)C(F)(F)F)S(=O)(=O)C(F)(F)F)c(=O)on1CCS(C)(=O)=O",
    "READOUT NUMBER": 40
  },
  {
    "MOLECULE": "Cc1c(Cc2ccccc2N(S(=O)(=O)C(F)(F)F)S(=O)(=O)C(F)(F)F)c(=O)on1CCCl",
    "READOUT NUMBER": 40
  },
  {
    "MOLECULE": "Cc1c(Cc2ccccc2N(S(=O)(=O)C(F)(F)F)S(=O)(=O)C(F)(F)F)c(=O)on1CCOCC(C)C",
    "READOUT NUMBER": 40
  },
  {
    "MOLECULE": "CCOC(=O)N(c1ccccc1Cc1c(C)n(C(C)CC)oc1=O)S(=O)(=O)C(F)(F)F (stereo not drawn)",
    "READOUT NUMBER": 40
  },
  {
    "MOLECULE": "CSCCn1oc(=O)c(Cc2ccccc2N(C(=O)OCC(C)C)S(=O)(=O)C(F)(F)F)c1C",
    "READOUT NUMBER": 40
  }
]
